# System: chinese hamster ovary cells (CHO)
# assay.details: CHO toxicity assay (CCK-8 cell viability)
# Format: cell-based
# condition.set: 50% growth inhibition vs untreated control, 24 hours
# CHO cell TD 50 values compiled below
parameter.measured: CHO cell TD 50 (µg/mL)

| compound | assay.system | unit.descriptor | endpoint.value |
| --- | --- | --- | --- |
| CC[P](CC)(CC)=[Au][S]c1nc2ncccc2o1 [Compound 8] | chinese hamster ovary cells (CHO) | µg/mL | 1.6 |
| CC[P](CC)(CC)=[Au][S]c1cccnn1 [Compound 4] | chinese hamster ovary cells (CHO) | µg/mL | 1.4 |
| C[P](=[Au][S]c1nc2ncccc2o1)(c1ccccc1)c1ccccc1 [Compound 11] | chinese hamster ovary cells (CHO) | µg/mL | 2.0 |
